- target or system: T1, Parkin R0RBR module (RING0, RING1, IBR, RING2), wild type (rat), Q9JK66
- T1 chain: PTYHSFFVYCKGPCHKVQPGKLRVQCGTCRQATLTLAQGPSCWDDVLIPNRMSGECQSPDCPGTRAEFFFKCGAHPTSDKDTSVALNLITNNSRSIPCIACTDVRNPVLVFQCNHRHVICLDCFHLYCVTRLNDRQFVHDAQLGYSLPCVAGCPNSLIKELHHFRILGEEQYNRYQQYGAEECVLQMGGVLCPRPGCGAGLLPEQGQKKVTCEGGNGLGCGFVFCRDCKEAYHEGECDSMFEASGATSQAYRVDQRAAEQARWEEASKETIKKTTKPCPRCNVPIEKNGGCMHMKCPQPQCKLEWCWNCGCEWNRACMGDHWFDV
- test summary: ITC; R0RBR (wild type or L266K) titrated with Ubl or pUbl; 20°C; 50 mM Tris–HCl pH 7.4, 150 mM NaCl, 1 mM TCEP; stoichiometry determined experimentally
value kind: Kd (µM)
Use µM as the unit, but write only the number.

// Input: Parkin Ubl domain (ubiquitin-like domain), unmodified (domain or fragment, modifications not checked) MIVFVRFNSSYGFPVEVDSDTSIFQLKEVVAKRQGVPADQLRVIFAGKELQNHLTVQNCDLEQQSIVHIVQRPQRK . Output its Kd only.
16
